Test system: IICR (IP3 induced calcium release) in CHO cells
Assay summary: Assay of IICR (IP3 induced calcium release)-inhibiting action
Assay type: cell-based, Chinese hamster
Settings: Cricetulus griseus, CHO, test compound 10 μmol; CHO cells, 10 μM ATP; read-out: IICR level (percentage of inhibition)
Recorded endpoint: inhibition at 10 µM
Entry format: amount then unit.

Below: 4 molecules and their reported inhibition at 10 µM.
Molecule	Result
CC(C)N(CCO)CCC(=O)c1cnccn1	20%
CC(CN(CCO)Cc1ccccc1)C(=O)c1ccc(F)cc1 (centres unmarked)	0%
COC(=O)C(CSSCC(NCCC(=O)c1ccc(C#N)cc1)C(=O)OC)NCCC(=O)c1ccc(C#N)cc1 (centres unmarked)	0%
CCCCN(CCC(=O)c1ccc2ccccc2c1)Cc1ccccc1	50%

Next up:
Consider the molecule shown here: COC(=O)C(CSSCC(NCCC(=O)c1ccc2c(c1)Cc1ccccc1-2)C(=O)OC)NCCC(=O)c1ccc2c(c1)Cc1ccccc1-2 (centres unmarked) What is its recorded inhibition at 10 µM?
54%

Numbers sourced from patent US8937091B2.
